Target: ACC1 from rat liver (Rattus norvegicus)
Construct: The livers (for ACC1 preparation) or skeletal muscle tissue (for ACC2 preparation) are removed; from tissue; host or cells: liver of male CD rats (fasted, then fed a high sucrose diet)
Assay: Direct inhibition of ACC1 activity (14C-bicarbonate incorporation)
Format: biochemical
Details: Table of Examples P1-P15
Where a name gives a salt, the structure may show the parent alone.
Please respond with Criterion met when measured IC50 is strictly beneath 0.4 µM, and with Criterion not met in all other cases.

CCOc1ccc(-c2cc[nH]n2)cc1C(=O)N1CCC2(CC1)CC(=O)c1cc(C)c(C)cc1O2 [Ex. P8]: Criterion not met
CCOc1ccc(-c2cc[nH]n2)cc1C(=O)N1CCC2(CC1)CC(=O)c1cc(Cl)c(C)cc1O2: Criterion not met
Cc1cc2c(cc1C)C(=O)CC1(CCN(C(=O)c3cccc(-c4cc(C(F)(F)F)[nH]n4)c3)CC1)O2 [Ex. P1]: Criterion met
Cc1cc2c(cc1Cl)C(=O)CC1(CCN(C(=O)c3cccc(-c4cc(C(F)(F)F)[nH]n4)c3)CC1)O2 [Ex. P2, trifluoroacetic acid salt]: Criterion not met

Strictly below 0.4 µM: is that where IC50 of "CCc1nc(-c2cccc(C(=O)N3CCC4(CC3)CC(=O)c3cc(C)c(C)cc3O4)c2)no1" sits?
Criterion not met

Quick check: IC50 of Cc1cc2c(cc1C)C(=O)CC1(CCN(C(=O)c3cccc(-c4ncc[nH]4)c3)CC1)O2 [Ex. P12, trifluoroacetic acid salt] under 0.4 µM?
Criterion met

----------
Biological target: ACC1 from rat liver (Rattus norvegicus, UniProt P11497)
Construct: The livers (for ACC1 preparation) or skeletal muscle tissue (for ACC2 preparation) are removed; from tissue; host or cells: liver of male CD rats (fasted, then fed a high sucrose diet)
Experiment: Direct inhibition of ACC1 activity (14C-bicarbonate incorporation)
Type: biochemical
Settings: Table of Examples M1-M36
quantity: log10(IC50) (log10 of the value in nM)
In our notation, the value equals log10 of IC50 in nM.

Below are worked cases with known answers.
COc1cccc2c1C(=O)CC1(CCN(C(=O)c3cccc(-c4cc[nH]n4)c3)CC1)O2 [Ex. M27]: 2.74
O=C1CC2(CCN(C(=O)c3cccc(-c4cc[nH]n4)c3)CC2)Oc2cc(F)c(Cl)cc21 [Ex. M24]: 2.68
COc1c(Cl)ccc2c1C(=O)CC1(CCN(C(=O)c3cccc(-c4cc[nH]n4)c3)CC1)O2 [Ex. M18]: 2.57
NC(=O)c1ccc2c(c1)C(=O)CC1(CCN(C(=O)c3cccc(-c4cc[nH]n4)c3)CC1)O2 [Ex. M5]: 2.07
O=C1CC2(CCN(C(=O)c3cccc(-c4cc[nH]n4)c3)CC2)Oc2cc(Cl)ccc21 [Ex. M15]: 2.37

Tell me the measured log10(IC50) of O=C1CC2(CCN(C(=O)c3cccc(-c4cc[nH]n4)c3)CC2)Oc2ccc(C(=O)N3CCOCC3)cc21 [Ex. M32] , please.
2.87

Would you mind telling me what log10(IC50) value was observed for COc1cc(C)cc2c1C(=O)CC1(CCN(C(=O)c3cccc(-c4cc[nH]n4)c3)CC1)O2 [Ex. M1] ?
1.57

Which measured log10(IC50) value corresponds to COc1cc2c(c(OC)c1OC)C(=O)CC1(CCN(C(=O)c3cccc(-c4cc[nH]n4)c3)CC1)O2 [Ex. M21] ?
2.64

Return reported log10(IC50); argument: O=C1CC2(CCN(C(=O)c3cccc(-c4cc[nH]n4)c3)CC2)Oc2cc(Cl)cc(Cl)c21 [Ex. M16]
2.50

Which log10(IC50) value belongs to Cc1cc2c(cc1Br)C(=O)CC1(CCN(C(=O)c3cccc(-c4cc[nH]n4)c3)CC1)O2 [Ex. M10] ?
2.30

Using the record for Cc1cc2c(cc1C)C(=O)CC1(CCN(C(=O)c3cccc(-c4cc[nH]n4)c3)CC1)O2 [Ex. M2] , report its log10(IC50).
1.87

Which value of log10(IC50) has been reported for COC(=O)c1ccc2c(c1)C(=O)CC1(CCN(C(=O)c3cccc(-c4cc[nH]n4)c3)CC1)O2 [Ex. M11] in the records?
2.31

Entry Cc1cc2c(cc1Cl)OC1(CCN(C(=O)c3cccc(-c4cc[nH]n4)c3)CC1)CC2=O [Ex. M7] has what log10(IC50)?
2.15

Requested field: log10(IC50). Item: O=C1CC2(CCN(C(=O)c3cccc(-c4cc[nH]n4)c3)CC2)Oc2ccc(C(F)(F)F)cc21 [Ex. M19]
2.62

Reported log10(IC50) for Cc1ccc2c(c1)OC1(CCN(C(=O)c3cccc(-c4cc[nH]n4)c3)CC1)CC2=O [Ex. M12] : what is it?
2.31
